Experiment: Cytotoxicity against mouse RAW264.7 cells assessed as cell viability at 10 uM by MTS assay relative to control
observed property: viability at 10 µM

{"structure": "O=C1/C(=C/c2cccc(OC(F)(F)F)c2)CCc2c(O)cccc21", "viability at 10 µM": "< 90%"}

// for each compound in input: emit viability at 10 µM
1. O=C1/C(=C/c2cccc(Br)c2)CCc2ccc(O)cc21
2. O=C1/C(=C/c2cccc(Br)c2)CCc2c(O)cccc21
3. O=C1/C(=C/c2cccnc2)CCc2cc(O)ccc21
4. O=C1/C(=C/c2ccc(Br)cc2)CCc2cc(O)ccc21
5. O=C1/C(=C/c2ccccc2F)CCc2ccc(O)cc21
6. O=C1/C(=C/c2cccc(Br)c2)CCc2cc(O)ccc21
7. O=C1/C(=C/c2ccccc2Br)CCc2c(O)cccc21

1: > 90%; 2: > 90%; 3: > 90%; 4: > 90%; 5: > 90%; 6: > 90%; 7: > 90%

For the 2 compounds below, give their viability at 10 µM values.
1. O=C1/C(=C/c2ccccc2OC(F)(F)F)CCc2cc(O)ccc21
2. O=C1/C(=C/c2cccc(Cl)c2)CCc2ccc(O)cc21

1. < 90%
2. > 90%
